Ref: patent US10342809B2

Reported EC50 values for the following molecules.
Test system: Tadpole
assay-overview: Tadpole loss of righting reflex (LRR) and loss of swimming reflex (LSR)
Type: in vivo
condition-info: loss of swimming reflex; ± SEM; read-out: Tadpole LSR EC50
Just the number in µM, nothing appended.

Examples with their reported EC50 follow.
Quick one: EC50 of COC[C@]12CC[C@@H](O)C[C@@H]1CC[C@H]1[C@@H]3CC[C@H](C(=O)CO)[C@@]3(C)CC[C@@H]12 ? 5.48

Then COC[C@]12CC[C@@H](O)C[C@@H]1CC[C@H]1[C@@H]3CC[C@H](OC)[C@@]3(C)CC[C@@H]12 ? 1.07

COC[C@]12CC[C@@H](O)C[C@@H]1CC[C@@H]1[C@@H]2CC[C@@]2(C)[C@H]1CC[C@@]21CO1 ? 3.54

Here is the next molecule: COC[C@]12CC[C@@H](O)C[C@@H]1CC[C@H]1[C@@H]3CC[C@H](C(C)=O)[C@@]3(C)CC[C@@H]12 1.71

Okay, and COC[C@]12CC[C@@H](O)C[C@@H]1CC[C@@H]1[C@@H]2CC[C@]2(C)C(C#N)=CC[C@@H]12 ? 2.71

Continuing:
Endpoint output: EC50 of COC[C@]12CCC(=O)C[C@@H]1CC[C@H]1[C@@H]3CC[C@H](OC)[C@@]3(C)CC[C@@H]12 . Value? 5.48

Subsequent entry: COC[C@]12CC[C@@H](O)CC1=CC[C@@H]1[C@@H]2CC[C@]2(C)[C@@H](OC)CC[C@@H]12 10.5

Same read-out for COC[C@]12CC[C@H](O)C[C@@H]1CC[C@H]1[C@@H]3CC[C@H](OC)[C@@]3(C)CC[C@@H]12 ? 16.8

Next molecule: COC[C@]12CC[C@@H](O)C[C@@H]1CC[C@@H]1[C@@H]2CC[C@]2(C)C(=O)CC[C@@H]12 17.3

Try the molecule COC[C@]12CC[C@@H](O)C[C@@H]1CC[C@H]1[C@@H]3CC[C@H]([N+](=O)[O-])[C@@]3(C)CC[C@@H]12 0.55

What do we get for COC[C@]12CC[C@@H](O)C[C@@H]1CC[C@H]1[C@@H]3CC[C@H](C#N)[C@@]3(C)CC[C@@H]12 ? 0.99

* * *

The following compounds are listed with their measured oocyte electrophysiology 0.1 μM values.
system-tested: rat α1β2γ2L type GABAA receptors expressed in Xenopus laevis oocytes (Rattus norvegicus, UniProt P62813+P63138)
Construct: expressed in transfected cells; host or cells: Xenopus laevis oocytes
Sequence (P62813 28-455): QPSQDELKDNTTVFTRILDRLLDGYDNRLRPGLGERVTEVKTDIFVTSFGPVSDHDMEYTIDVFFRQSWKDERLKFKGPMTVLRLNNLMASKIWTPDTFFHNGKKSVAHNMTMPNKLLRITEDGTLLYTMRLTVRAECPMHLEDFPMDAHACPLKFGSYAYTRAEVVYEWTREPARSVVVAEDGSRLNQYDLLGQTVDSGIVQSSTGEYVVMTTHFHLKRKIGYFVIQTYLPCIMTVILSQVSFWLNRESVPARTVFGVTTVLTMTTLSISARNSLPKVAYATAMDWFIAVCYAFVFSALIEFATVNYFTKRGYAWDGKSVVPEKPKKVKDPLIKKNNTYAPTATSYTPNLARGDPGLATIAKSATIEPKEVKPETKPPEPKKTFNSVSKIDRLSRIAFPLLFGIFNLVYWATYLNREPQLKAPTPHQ
Sequence (P63138 26-474): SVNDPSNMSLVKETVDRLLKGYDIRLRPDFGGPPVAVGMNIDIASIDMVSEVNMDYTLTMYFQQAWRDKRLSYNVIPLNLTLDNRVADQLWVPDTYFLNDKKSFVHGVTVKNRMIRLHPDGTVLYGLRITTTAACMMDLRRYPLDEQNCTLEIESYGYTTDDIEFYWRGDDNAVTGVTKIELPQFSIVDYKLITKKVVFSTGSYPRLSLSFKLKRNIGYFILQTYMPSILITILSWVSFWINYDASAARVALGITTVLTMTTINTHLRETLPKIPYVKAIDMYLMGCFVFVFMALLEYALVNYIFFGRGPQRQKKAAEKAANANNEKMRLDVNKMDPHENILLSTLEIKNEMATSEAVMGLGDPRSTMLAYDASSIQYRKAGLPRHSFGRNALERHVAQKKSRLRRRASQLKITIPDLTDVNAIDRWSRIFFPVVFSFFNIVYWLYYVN
Sequence (P18508 with tags, fused parts or gaps INS375LLRMFSFK partner): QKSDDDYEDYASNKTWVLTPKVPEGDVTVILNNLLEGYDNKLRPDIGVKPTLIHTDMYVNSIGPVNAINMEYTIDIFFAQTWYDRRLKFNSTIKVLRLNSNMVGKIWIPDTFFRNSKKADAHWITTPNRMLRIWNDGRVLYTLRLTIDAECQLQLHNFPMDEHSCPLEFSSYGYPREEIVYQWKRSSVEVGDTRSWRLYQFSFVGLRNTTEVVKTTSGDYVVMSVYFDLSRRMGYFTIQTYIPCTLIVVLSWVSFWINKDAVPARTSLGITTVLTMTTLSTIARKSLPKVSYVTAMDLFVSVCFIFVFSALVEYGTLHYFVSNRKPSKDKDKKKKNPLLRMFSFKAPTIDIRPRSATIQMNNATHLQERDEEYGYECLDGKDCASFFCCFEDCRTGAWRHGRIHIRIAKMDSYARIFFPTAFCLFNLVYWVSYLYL
assay-overview: Oocyte electrophysiology: potentiation of GABA-mediated chloride currents and direct gating
Type: cell-based
condition-info: ratio of currents in presence/absence of 0.1 μM compound; 2 μM GABA; ± SEM, N ≥4

Item COC[C@]12CC[C@@H](O)C[C@@H]1CC[C@H]1[C@@H]3CC[C@H](OC)[C@@]3(C)CC[C@@H]12 [Compound 8, (5α,17β)-17,19-Dimethoxyandrostan-3-ol] has what recorded oocyte electrophysiology 0.1 μM? 1.65 ± 0.08

Same for COC[C@]12CC[C@H](O)CC1=CC[C@@H]1[C@@H]2CC[C@]2(C)[C@@H](OC)CC[C@@H]12 [Compound 26] 0.83 ± 0.03

Request: COC[C@]12CC[C@@H](O)C[C@@H]1CC[C@H]1[C@@H]3CC[C@H](C#N)[C@@]3(C)CC[C@@H]12 [Compound 16] 1.52 ± 0.02

Now consider COC[C@]12CC[C@@H](O)C[C@@H]1CC[C@@H]1[C@@H]2CC[C@]2(C)C(C#N)=CC[C@@H]12 [Compound 15] and answer again. 1.27 ± 0.13

Another compound to check: COC[C@]12CC[C@@H](O)C[C@@H]1CC[C@H]1[C@@H]3CC[C@H](C(=O)CO)[C@@]3(C)CC[C@@H]12 [Compound 20] 0.98 ± 0.01

Entry to check: COC[C@]12CC[C@@H](O)C[C@@H]1CC[C@@H]1[C@@H]2CC[C@@]2(C)[C@H]1CC[C@@]21CO1 [Compound 12] 1.24 ± 0.05

Let us examine a further case.
// returns reported oocyte electrophysiology 0.1 μM for input COC[C@]12CCC(=O)C=C1CC[C@@H]1[C@@H]2CC[C@]2(C)[C@@H](OC)CC[C@@H]12 [Compound 24, (17β)-17,19-Dimethoxyandrost-4-en-3-one] 0.88 ± 0.08
